This collection of values is drawn from patent US20130079278A1.

TARGET_DESC: glucagon receptor (human, UniProt P47871 26-477)
Sequence (P47871 26-477): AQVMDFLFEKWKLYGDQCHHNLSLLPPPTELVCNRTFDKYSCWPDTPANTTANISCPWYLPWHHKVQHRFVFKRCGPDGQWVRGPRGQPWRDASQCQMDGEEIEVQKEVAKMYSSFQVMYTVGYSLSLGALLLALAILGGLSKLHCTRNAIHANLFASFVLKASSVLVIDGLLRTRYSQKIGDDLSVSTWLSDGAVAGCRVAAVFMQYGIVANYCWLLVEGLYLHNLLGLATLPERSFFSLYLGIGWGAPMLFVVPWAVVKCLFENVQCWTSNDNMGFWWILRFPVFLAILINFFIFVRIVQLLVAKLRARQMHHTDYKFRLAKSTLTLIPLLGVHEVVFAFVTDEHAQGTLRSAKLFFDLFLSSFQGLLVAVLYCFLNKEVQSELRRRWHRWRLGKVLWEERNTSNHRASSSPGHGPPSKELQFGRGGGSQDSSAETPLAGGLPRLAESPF
MEASUREMENT_PROTOCOL: cell-based or functional assay
*1 amine or outer side, *2 acyl side, *3 side chain or, on linkers, in order; H or OH if unused. Where no end group is shown, it is not given here. Side-chain parts run from the residue outwards. The star is where a group is joined. X1 = 4‑(16-(1H-tetrazol-5-yl)hexadecanoylsulfamoyl)butanoyl, O=C(CCCCCCCCCCCCCCCc1nnn[nH]1)NS(=O)(=O)CCCC(=O)*; X2 = 4‑(16-(1H-tetrazol-5-yl)hexadecanoylsulfamoyl)butanoyl, O=C(CCCCCCCCCCCCCCCc1nn[nH]n1)NS(=O)(=O)CCCC(=O)*; C18 diacid = O=C(O)CCCCCCCCCCCCCCCCC(=O)*; C16 diacid = O=C(O)CCCCCCCCCCCCCCC(=O)*; γGlu = O=C(O)[C@H](CCC(=O)[*:2])N[*:1]; AEEA = NCCOCCOCC(=O)O
# label = fulfilled if Assay (I) Glucagon [EC50] < 200 pM else not fulfilled

// known answers, use as guide
BINDER: HSQGTFTSDYSRYLESRRAQDFVK([γGlu-γGlu-AEEA-AEEA-γGlu-C16 diacid])WLLST
CAT: fulfilled
//
BINDER: HSQGTFTSDYSRYLDIRRAQDFVK([γGlu-γGlu-AEEA-AEEA-γGlu-C18 diacid])WLLST
CAT: not fulfilled
//
BINDER: HSQGTFTSDYSRYLDTRRAQDFVK([γGlu-γGlu-AEEA-AEEA-γGlu-C16 diacid])WLLST
CAT: fulfilled
//
BINDER: HSQGTFTSDYSRYLESRRAQEFVK([γGlu-γGlu-AEEA-AEEA-γGlu-C18 diacid])WLLST
CAT: not fulfilled
//
BINDER: HSQGTFTSDYSKYLDTRRAQEFVK([γGlu-AEEA-AEEA-γGlu-C18 diacid])WLLNL
CAT: fulfilled

Exercise: Hello, is Assay (I) Glucagon [EC50] of the following binder strictly smaller than 200 pM? HSQGTFTSDYSRYLDTRRAQDFVK([γGlu-γGlu-AEEA-AEEA-γGlu-C18 diacid])WLLST
Solution: not fulfilled

Exercise: Input `HSQGTFTSDYSKYLESRRAQDFVK([γGlu-γGlu-AEEA-X1])WLLST` ; condition: Assay (I) Glucagon [EC50] strictly below 200 pM. Does it hold?
Solution: not fulfilled

Exercise: Record `HSQGTFTSDYSRYLDLRRAQDFVK([γGlu-γGlu-AEEA-AEEA-γGlu-X2])WLLST` : is its Assay (I) Glucagon [EC50] strictly below 200 pM?
Solution: not fulfilled
